# Study target: T1, 4H816-AA
# T1 chain: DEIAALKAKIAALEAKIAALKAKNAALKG
# Method description: two-hybrid library CCmax;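 note: natural log of median RNA to DNA barcode read ratio; higher means stronger binding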
# Particulars: mean of both orientations
Experimental readout: interaction score
One number for each entry.

{"columns": ["Binder", "Reported result"],
 "data": [
  ["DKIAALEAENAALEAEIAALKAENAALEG [4H2187-AA]", -0.683],
  ["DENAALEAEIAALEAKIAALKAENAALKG [4H1068-AA]", 0.372],
  ["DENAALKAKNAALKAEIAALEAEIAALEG [4H1985-AA]", -0.103]
]}

Kindly review the next binder as well.
Query block: Find the recorded interaction score belonging to DKNAALEAEIAALEAKNAALKAKIAALKG [4H3134-AA] and report it.
Result block: -0.115
